Measured TGI, listed per entry for reference.
- Test system: A549 NSCLC
- procedureText: NCI tumour cell line growth inhibition, 48 h
property: TGI (µM)

>>> print(df.to_string())
                                   molecule  valueunits  qual  measurement
0  Nc1nccc(-c2c(-c3ccc(F)cc3)ncn2C2CCNCC2)n1          µM     >           25
1  S=c1[nH]nc(CNc2ccc(-c3n[nH]c(=S)n3-c3ccc(Cl)cc3)cc2)n1-c1ccc(Cl)cc1          µM     >          100
2   O=c1c2cc(I)ccc2nc(SCc2nncs2)n1Cc1ccccc1          µM     >          100
3  O=C(N/C(=C\c1ccc(Cl)cc1)c1nc2ccccc2[nH]1)c1ccccc1          µM     =         56.1
4  Cc1c(Cl)cccc1NC(=O)C(=O)C(C(=O)c1ccccc1-c1ccccc1)C1OC(=O)c2ccccc21 (stereo not given)          µM     =         66.8

====

Recorded GI50, one value per entry.
- System: COLO 205 colon
- procedureText: NCI tumour cell line growth inhibition, 48 h
property: GI50

>>> df
                                    molecule  measurement
 0                       O=Nc1ccc(O)c(=O)cc1      1080 nM
 1  COCC1CCCN1c1ccc(C=N/C(C#N)=C(\N)C#N)cc1 (stereo not drawn)  > 100000 nM
 2  CC(=O)Nc1ccc2c(c1)C(c1ccccc1Cl)=Nc1c(n[nH]c1C)N2      1530 nM
 3  Fc1cc2[nH]ncc2c2c3c(c(-c4cn[nH]c4C(F)(F)F)nc12)CCCC3      1550 nM
 4  COc1ccc(/C=C/C(=O)c2cc(OC)c(OC)c(OC)c2)cc1OCC(=O)Nc1nc2ccc(OC(F)(F)F)cc2s1      6370 nM
 5  CC(=O)c1ccc2c(c1)c1cc(C(C)=O)ccc1n2CCNC(C)C       331 nM
 6  COCCNCc1ccc(-c2cc3nccc(Oc4ccc(NC(=S)NC(=O)Cc5ccc(F)cc5)cc4F)c3s2)nc1      2020 nM
 7   Cc1cc2nc3c4cc(O)ccc4n(CCN(C)C)c3nc2cc1C       698 nM
 8             CCN(CCCN(C)C)Cc1cc(I)cc(C)c1O     18900 nM
 9  CCN1C/C(=C\c2cc(OC)c(OC)cc2OC)C(=O)/C(=C/c2cc(OC)c(OC)cc2OC)C1      2310 nM
10  COc1cc(C2Cc3ncccc3-c3[nH]c(=O)c4cccnc4c32)cc(OC)c1OC (stereo not drawn)       332 nM
11  CCOC(=O)/C(=C/N1CCN(C(=O)c2ccco2)C1=S)C(=O)c1ccccc1     19200 nM
12  CCN(CC)c1ccc(/C=N/NC(=O)CSc2nc3ccccc3c(=O)n2CCc2ccc(S(N)(=O)=O)cc2)c(O)c1      3220 nM

====

- System: RPMI-8226 leukemia
- procedureText: NCI tumour cell line growth inhibition, 48 h
Listed here: items and their measured log10(TGI).
property: log10(TGI) (log10 of the value in µM)

molecule	log10(TGI)
COc1ccc2c(c1)/C(=C\c1c(-c3cc(OC)ccc3OC)nc3sc(C)cn13)C(=O)N2C	1.77
CC[C@H](C)[C@H]1NC(=O)[C@@H](NC(=O)[C@@H](CC(C)C)N(C)C(=O)C2CCCN2C(=O)[C@H](C)O)[C@@H](C)OC(=O)[C@H](Cc2ccc(OC)cc2)N(C)C(=O)[C@@H]2CCCN2C(=O)[C@H](CCCCNC(=O)OCc2ccccc2)NC(=O)[C@H](C)C(=O)[C@H](C(C)C)OC(=O)C[C@@H]1O (some centres undefined)	1.29
COc1ccc2nc3c(C(=O)NCCN(C)C)cccc3cc2c1	0.79
COC(=O)c1n[nH]c(C)c1N=NN(C)CCC#N	1.54
O=C(O[C@@H](/C=C/c1ccccc1)P1(=O)N(Cc2ccccc2)[C@H]2CCCC[C@@H]2N1Cc1ccccc1)c1ccccc1	0.86
CCc1ccccc1N=NC(=O)NNc1ccccc1CC	1.89
